Test: in vitro
Conditions: human, plasma
Entries annotated with measured fraction unbound at 5 h

CC(=O)N1CCN(c2ccc(OCC3COC(Cn4ccnc4)(c4ccc(Cl)cc4Cl)O3)cc2)CC1 (stereo unspecified) [KETOCONAZOLE]; 0.028
Cc1ccccc1CN1CCC(N2CCC(n3c(=O)[nH]c4ccccc43)CC2)CC1; 0.355
COc1ccc2c(c1)N(CCN1CCC(NCc3cc4c(cn3)OCCO4)CC1)C(=O)CO2; 0.176
O=C(Nc1ccccc1F)N[C@H]1N=C(c2ccccc2)c2ccccc2NC1=O [RSV-604]; 0.0366
Cc1ccc(S(=O)(=O)Nc2ccc3nc(C)sc3c2)cc1; 0.0021

Now consider the entry below.
Which fraction unbound at 5 h is reported for this molecule? Nc1nc(O)c(Cl)c(-c2ccccc2)n1 0.0477
